Below is a list of entries, each paired with its recorded Average of 2 trials SEPTTR-184 1DP value.
# System: Zymoseptoria tritici (SEPTTR-184)
# experimental-protocol: Efficacy of target gene fragments (MgCytB dsRNA tiles) on wheat plants, SEPTTR-184
# Type: in vivo
# Set-up: scale not given here
# particulars: 3.125 ppm; 1DP (preventative)
recorded-metric: Average of 2 trials SEPTTR-184 1DP

MgCytB-T5: 172 bp dsRNA of Zymoseptoria CytB region T5, location 173-344 (SEQ ID NO:8) (nucleic acid, listed as Zymoseptoria tritici, complementary strand of dsRNA) TATCTGAAGCATTTAACTCAGTTGAACACATAATGAGAGATGTAAACAATGGATGACTTATACGTTATCTTCACTCTAATACTGCTTCAGCTTTCTTCTTTTTAGTTTACCTGCACGTGGGTAGAGGGTTATACTACGGGTCATACAAAGCCCCTAGAACATTAACATGAAC	68
MgCytB-T2: 203 bp dsRNA of Zymoseptoria CytB region 2, location 603-805 (SEQ ID NO:5) (nucleic acid, listed as Zymoseptoria tritici, complementary strand of dsRNA) ACACGATACAGCGGGTTCAGGAAATCCTTTAGGTGTATCAGGTAACTACGATAGATTACCATTCGCCCCTTACTTTATATTCAAAGATTTAATAACAATATTTTTATTCATTATAGTGTTATCAATATTTATTTTCTTTATGCCTAACGTTTTAGGTGACAGCGAGAATTATGTTATGGCTAACCCTATGCAAACTCCACCTG	67
